- Protocol: hepatitis C replication reporter changes, two-sided – Huh7 cells, luciferase reporter, HCV replication inhibitor project, primary screen (AID 1109);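 further: huh7 hepatoma cells harbouring a luciferase neomycin HCV replicon reporter; luciferase luminescence as measure of HCV replicon replication; test concentration not given here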
- Condition Notes: Huh7 HCV replicon luciferase reporter, 48 h; higher = more signal
Reported Endpoint: z-score

Exercise: Input `Cc1ccc([C@H]2C(C(=O)O)=C[C@@H](C(C)C)N2S(=O)(=O)c2ccc(C)cc2)cc1` , output reported z-score.
Key: 0.58

Exercise: Input O=C1C2C=CC(C(O)c3ccc(Br)cc3)N(n3cnnc3)C2C(=O)N1Cc1ccccc1 (stereo not given) , output reported z-score.
Key: -4.38

Exercise: Input O=P(NCC1(CC2(c3ccccc3)CO2)CC1)(c1ccccc1)c1ccccc1 (stereo not given) , output reported z-score.
Key: -1.17

Exercise: Input `CC(=O)N1Cc2ccccc2C[C@@]2(N=C(c3ccc(OCCCO)cc3)O[C@H]2c2ccccc2)C1=O` , output reported z-score.
Key: -2.83

Exercise: Input `Cc1ccc(N2C(=O)c3ccccc3[C@@H](C(=O)NCC(C)C)[C@@H]2c2ccc(CO)cc2)nc1` , output reported z-score.
Key: -0.216
